target.desc: T1, DFNB31_1, Q9P202
T1 sequence (Q9P202 135-233, limits assumed, looked up): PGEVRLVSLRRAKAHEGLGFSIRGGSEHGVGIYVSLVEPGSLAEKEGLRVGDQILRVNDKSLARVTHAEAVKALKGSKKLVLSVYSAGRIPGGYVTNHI
test.summary: holdup assay
Parameters: key: below the threshold = too weak to quantify, mostly under pKd 3.1 to 4
measurement.setup: plain residues with an end cap or a label only (N-terminal biotin on a linker: ado-ado)
Label yes when pKd is at or above 4; anything below gets no.

[
  {
    "binder": "PTPDLPQTRV [KLHDC7A, Q5VTJ3]",
    "category": "yes"
  },
  {
    "binder": "SPDRDRESIV [SCN5A, Q14524]",
    "category": "no"
  },
  {
    "binder": "VLYPREGTEV [FOXI1, Q12951]",
    "category": "no"
  },
  {
    "binder": "NISYRRESAI [KCNJ4, P48050]",
    "category": "yes"
  },
  {
    "binder": "NTANRRTTPV [CACNG2, Q9Y698]",
    "category": "no"
  }
]

Determine whether this binder has pKd no lower than 4: MQHQRTHTRV [ZSCAN30, Q86W11]
no

Dear colleague, could you confirm whether ARESQKVSHV [FAM110B, Q8TC76] has pKd at or above 4?
no
